B1: Chromodomain-helicase-DNA-binding protein 5, residues 338 to 390; numbered along this chain, Q8TDI0 (parent)
chain: YETDHQDYCEVCQQGGEIILCDTCPRAYHLVCLDPELEKAPEGKWSCPHCEKE

variants of: B1; experiment: abundance fitness (aPCA) (normalised: wild type 0, dead -1); higher = more abundant; growth selection in yeast, the domain comes from the species named; details: Homo sapiens
Recorded measurements of abundance fitness, one per entry
The answer should be a number; do not append a unit.

Here are 4 variants together with their reported answers.
L30S: -0.06
A40T: -0.088
Y28H: -0.158
E38P: 0.188

Documented abundance fitness of I19Q : 0.029

Documented abundance fitness of V31T : -0.023

Documented abundance fitness of P25K : 0.109

Documented abundance fitness of K52N : -0.378

Documented abundance fitness of W45H : 0.283

Documented abundance fitness of L37Y : -0.237

Documented abundance fitness of K44N : -0.237

Documented abundance fitness of I19K : 0.315
